- assay.system: Nitric oxide synthase, inducible (Homo sapiens)
- Sequence (P35228 whole entry): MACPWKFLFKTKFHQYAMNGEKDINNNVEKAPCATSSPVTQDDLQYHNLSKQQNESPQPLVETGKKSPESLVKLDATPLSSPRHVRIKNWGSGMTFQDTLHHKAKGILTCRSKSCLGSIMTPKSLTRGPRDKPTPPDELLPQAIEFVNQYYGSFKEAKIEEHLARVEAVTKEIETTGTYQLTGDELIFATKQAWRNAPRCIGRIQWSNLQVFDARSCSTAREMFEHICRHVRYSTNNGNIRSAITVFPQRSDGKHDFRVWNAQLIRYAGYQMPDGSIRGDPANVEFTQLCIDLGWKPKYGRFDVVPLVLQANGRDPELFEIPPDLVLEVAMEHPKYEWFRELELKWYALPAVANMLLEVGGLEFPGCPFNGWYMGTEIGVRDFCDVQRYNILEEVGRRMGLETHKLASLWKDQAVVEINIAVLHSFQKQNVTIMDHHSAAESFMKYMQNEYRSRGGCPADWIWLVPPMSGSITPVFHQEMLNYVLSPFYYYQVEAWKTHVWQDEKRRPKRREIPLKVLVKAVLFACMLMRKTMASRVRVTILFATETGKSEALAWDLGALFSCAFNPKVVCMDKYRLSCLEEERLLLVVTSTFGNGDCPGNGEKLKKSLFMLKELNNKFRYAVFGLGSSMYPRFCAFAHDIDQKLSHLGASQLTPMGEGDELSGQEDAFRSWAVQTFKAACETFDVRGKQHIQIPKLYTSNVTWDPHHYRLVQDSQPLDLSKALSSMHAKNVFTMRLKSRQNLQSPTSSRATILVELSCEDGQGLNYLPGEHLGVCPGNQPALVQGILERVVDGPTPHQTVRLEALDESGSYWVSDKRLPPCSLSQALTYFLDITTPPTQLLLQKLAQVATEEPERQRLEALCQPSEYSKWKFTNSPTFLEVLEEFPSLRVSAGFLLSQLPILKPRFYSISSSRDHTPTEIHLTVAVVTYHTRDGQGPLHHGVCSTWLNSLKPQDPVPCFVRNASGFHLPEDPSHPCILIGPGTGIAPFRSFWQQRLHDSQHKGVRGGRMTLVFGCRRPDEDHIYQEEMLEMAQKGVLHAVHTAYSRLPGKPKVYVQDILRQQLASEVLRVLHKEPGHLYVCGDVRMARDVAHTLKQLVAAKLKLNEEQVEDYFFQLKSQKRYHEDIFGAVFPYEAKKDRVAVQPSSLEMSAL
- protocol: Inhibition of cytokine-induced iNOS expressed in human A172 cells assessed as inhibition of NO formation
Under this convention, fulfilled denotes IC50 strictly below 2 nM and not fulfilled denotes IC50 at or above 2 nM.

Given O=C(CC1CCCCN1c1ccnc(-n2ccnc2)n1)NCc1ccc(C(F)(F)F)cc1 (configuration not stated) , is recorded IC50 strictly lower than 2 nM?
not fulfilled

Given O=C(CC1CN(C(=O)COCc2ccccc2)CCN1c1ccnc(-n2ccnc2)n1)NCc1ccc2c(c1)OCO2 (configuration not stated) , is recorded IC50 strictly lower than 2 nM?
fulfilled

Given COc1cc(CNC(=O)CC2CCCCN2c2ccnc(-n3ccnc3)n2)cc(OC)c1OC (configuration not stated) , is recorded IC50 strictly lower than 2 nM?
not fulfilled

Given O=C(CC1COCCN1c1ccnc(-n2ccnc2)n1)NCc1ccc2c(c1)OCO2 (configuration not stated) , is recorded IC50 strictly lower than 2 nM?
fulfilled

Given Cc1cc(N2CCN(S(C)(=O)=O)C(CC(=O)NCc3ccc4c(c3)OCO4)C2)nc(-n2ccnc2)n1 (configuration not stated) , is recorded IC50 strictly lower than 2 nM?
not fulfilled

Given O=C(CC1CCCCN1c1ccnc(-n2ccnc2)n1)NCc1ccc(F)cc1 (configuration not stated) , is recorded IC50 strictly lower than 2 nM?
not fulfilled

Given Cc1cc(N2CCN(C(=O)C(C)C)C(CC(=O)NCc3ccc4c(c3)OCO4)C2)nc(-n2ccnc2)n1 (configuration not stated) , is recorded IC50 strictly lower than 2 nM?
fulfilled

Given O=C(CC1CN(Cc2ccccc2)CCN1c1ccnc(-n2ccnc2)n1)NCc1ccc2c(c1)OCO2 (configuration not stated) , is recorded IC50 strictly lower than 2 nM?
fulfilled

Given `CCc1cc(N2CCC[C@@H]2CC(=O)NCc2ccc3c(c2)OCO3)nc(-n2ccnc2)n1` , is recorded IC50 strictly lower than 2 nM?
fulfilled

Given COc1ccc(CCNC(=O)CC2CCCCN2c2ccnc(-n3ccnc3)n2)cc1OC (configuration not stated) , is recorded IC50 strictly lower than 2 nM?
not fulfilled

Given O=C(CC1CN(C(=O)Nc2ccccc2)CCN1c1ccnc(-n2ccnc2)n1)NCc1ccc2c(c1)OCO2 (configuration not stated) , is recorded IC50 strictly lower than 2 nM?
fulfilled

Given O=C(CC1CCCCN1c1ccnc(-n2ccnc2)n1)Nc1ccc2c(c1)OCO2 (configuration not stated) , is recorded IC50 strictly lower than 2 nM?
not fulfilled

Given COc1cccc(CNC(=O)CC2CCCCN2c2ccnc(-n3ccnc3)n2)c1 (configuration not stated) , is recorded IC50 strictly lower than 2 nM?
not fulfilled

Given `COC(=O)N1CCN(c2ccnc(-n3ccnc3)n2)[C@H](CC(=O)NCc2ccc3c(c2)OCO3)C1` , is recorded IC50 strictly lower than 2 nM?
not fulfilled

Given `Cc1cc(N2CCC[C@H]2C(=O)NCCc2ccc3c(c2)OCO3)nc(-n2ccnc2)n1` , is recorded IC50 strictly lower than 2 nM?
not fulfilled

Given `CCc1cc(N2CCC[C@@H]2C(=O)NCCc2ccc3c(c2)OCO3)nc(-n2ccnc2)n1` , is recorded IC50 strictly lower than 2 nM?
fulfilled

Given O=C(CC1CN(S(=O)(=O)c2ccccc2)CCN1c1ccnc(-n2ccnc2)n1)NCc1ccc2c(c1)OCO2 (configuration not stated) , is recorded IC50 strictly lower than 2 nM?
not fulfilled

Given CN(C)c1cccc2c(S(=O)(=O)N3CCN(c4ccnc(-n5ccnc5)n4)C(CC(=O)NCc4ccc5c(c4)OCO5)C3)cccc12 (configuration not stated) , is recorded IC50 strictly lower than 2 nM?
fulfilled

Given `COC(=O)N1CCN(c2ccnc(-n3ccnc3)n2)[C@@H](CC(=O)NCc2ccc3c(c2)OCO3)C1` , is recorded IC50 strictly lower than 2 nM?
fulfilled

Given O=C(CC1CN(C(=O)OCc2ccccc2)CCN1c1ccnc(-n2ccnc2)n1)NCc1ccc2c(c1)OCO2 (configuration not stated) , is recorded IC50 strictly lower than 2 nM?
fulfilled

Given Cc1cc(N2CCN(C)C(CC(=O)NCc3ccc4c(c3)OCO4)C2)nc(-n2ccnc2)n1 (configuration not stated) , is recorded IC50 strictly lower than 2 nM?
not fulfilled

Given `O=C(C[C@H]1CCCN1c1ccnc(-n2ccnc2)n1)NCc1ccc2c(c1)OCO2` , is recorded IC50 strictly lower than 2 nM?
fulfilled

Given CNC(=O)CC1CCCCN1c1ccnc(-n2ccnc2)n1 (configuration not stated) , is recorded IC50 strictly lower than 2 nM?
not fulfilled

Given COC(=O)N1CCN(c2cc(C)nc(-n3ccnc3)n2)CC1CC(=O)NCc1ccc2c(c1)OCO2 (configuration not stated) , is recorded IC50 strictly lower than 2 nM?
not fulfilled

Given CS(=O)(=O)N1CCN(c2ccnc(-n3ccnc3)n2)C(CC(=O)NCc2ccc3c(c2)OCO3)C1 (configuration not stated) , is recorded IC50 strictly lower than 2 nM?
fulfilled

Given O=C(CC1CCCCN1c1cc(-n2ccnc2)ncn1)NCc1ccc2c(c1)OCO2 (configuration not stated) , is recorded IC50 strictly lower than 2 nM?
not fulfilled

Given Cc1cc(N2CCCCC2CC(=O)NCc2ccc3c(c2)OCO3)nc(-n2ccnc2)n1 (configuration not stated) , is recorded IC50 strictly lower than 2 nM?
not fulfilled

Given COC(=O)N1CCN(c2ccnc(-n3ccnc3)n2)C(CC(=O)NCc2ccc3c(c2)OCO3)C1 (configuration not stated) , is recorded IC50 strictly lower than 2 nM?
fulfilled

Given O=C(CC1CN(C(=O)c2ccccc2)CCN1c1ccnc(-n2ccnc2)n1)NCc1ccc2c(c1)OCO2 (configuration not stated) , is recorded IC50 strictly lower than 2 nM?
fulfilled

Given O=C(CC1CN(Cc2ccco2)CCN1c1ccnc(-n2ccnc2)n1)NCc1ccc2c(c1)OCO2 (configuration not stated) , is recorded IC50 strictly lower than 2 nM?
fulfilled

Given O=C(CC1CN(c2cccc(F)n2)CCN1c1ccnc(-n2ccnc2)n1)NCc1ccc2c(c1)OCO2 (configuration not stated) , is recorded IC50 strictly lower than 2 nM?
fulfilled

Given COc1ccc(CCNC(=O)CC2CCCCN2c2ccnc(-n3ccnc3)n2)cc1 (configuration not stated) , is recorded IC50 strictly lower than 2 nM?
not fulfilled

Given O=C(CC1CCCCN1c1cc(-n2ccnc2)nc(-n2ccnc2)n1)NCc1ccc2c(c1)OCO2 (configuration not stated) , is recorded IC50 strictly lower than 2 nM?
not fulfilled

Given O=C(CC1CCCCN1c1ccnc(-n2ccnc2)n1)NCc1ccc(OC(F)(F)F)cc1 (configuration not stated) , is recorded IC50 strictly lower than 2 nM?
not fulfilled

Given O=C(CC1CCCCN1c1cccc(-n2ccnc2)c1)NCc1ccc2c(c1)OCO2 (configuration not stated) , is recorded IC50 strictly lower than 2 nM?
not fulfilled

Given O=C(CC1CCCCN1c1cc(-c2ccccc2)nc(-n2ccnc2)n1)NCc1ccc2c(c1)OCO2 (configuration not stated) , is recorded IC50 strictly lower than 2 nM?
not fulfilled

Given Cc1cc(N2CCN(Cc3ccccc3)C(CC(=O)NCc3ccc4c(c3)OCO4)C2)nc(-n2ccnc2)n1 (configuration not stated) , is recorded IC50 strictly lower than 2 nM?
not fulfilled

Taken from ChEMBL document CHEMBL1142952.
